# IC50 listing for each entry below
target: norepinephrine uptake, rat reuptake transporter (synaptosomes from male Wistar rat hypothalamus) (Rattus norvegicus); experiment: Norepinephrine functional uptake assay for rat reuptake transporter (synaptosomes); conditions: [3H]-norepinephrine uptake, read-out: Inhibition of monoamine uptake, Rat NE, IC50
Sequence (Q63380 1-617): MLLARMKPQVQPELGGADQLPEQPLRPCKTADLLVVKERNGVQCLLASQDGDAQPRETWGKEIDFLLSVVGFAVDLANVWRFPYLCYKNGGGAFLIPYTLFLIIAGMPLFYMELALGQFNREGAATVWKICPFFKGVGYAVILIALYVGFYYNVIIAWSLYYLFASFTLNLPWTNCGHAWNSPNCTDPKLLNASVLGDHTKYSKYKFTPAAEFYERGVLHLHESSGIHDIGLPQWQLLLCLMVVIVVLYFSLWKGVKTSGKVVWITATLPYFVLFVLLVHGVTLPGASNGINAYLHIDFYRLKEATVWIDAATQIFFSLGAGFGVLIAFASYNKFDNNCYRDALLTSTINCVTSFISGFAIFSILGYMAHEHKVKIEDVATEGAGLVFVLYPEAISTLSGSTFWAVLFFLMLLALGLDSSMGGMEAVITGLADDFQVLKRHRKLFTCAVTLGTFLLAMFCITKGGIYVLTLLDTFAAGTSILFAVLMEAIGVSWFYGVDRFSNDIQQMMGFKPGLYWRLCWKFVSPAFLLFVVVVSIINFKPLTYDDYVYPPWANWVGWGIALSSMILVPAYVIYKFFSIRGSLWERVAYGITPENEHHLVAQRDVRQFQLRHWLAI
Report the value in nM with no unit label.

In the examples that follow, each entry is paired with its recorded IC50.
Entry CN(C)CC(c1ccc(O)cc1)C1(O)CCCCC1 (single isomer, unassigned; (-)) [(−)-O-desmethylvenlafaxine] has what IC50?
430

For CN(C)CC(c1ccc(O)cc1)C1(O)CCCCC1 (racemic) [Racemic O-desmethylvenlafaxine, O-desmethylvenlafaxine] , what is its reported IC50?
1500

Could you now consider this next compound?
Quick one: IC50 of CN(C)CC(c1ccc(O)cc1)C1(O)CCCCC1 (single isomer, unassigned; (+)) [(+)-O-desmethylvenlafaxine] ?
1700

---

target: dopamine uptake, rat reuptake transporter (synaptosomes from male Wistar rat striatum) (Rattus norvegicus, UniProt P23977); construct: synaptosomes isolated in a 0.32 M sucrose buffer from a male Wistar rat striatum; assay: Dopamine functional uptake assay for rat reuptake transporter (synaptosomes); details: rat synaptosomes, [3H]-dopamine uptake; read-out: Inhibition of monoamine uptake, Rat DA, IC50
Sequence (P23977 whole entry): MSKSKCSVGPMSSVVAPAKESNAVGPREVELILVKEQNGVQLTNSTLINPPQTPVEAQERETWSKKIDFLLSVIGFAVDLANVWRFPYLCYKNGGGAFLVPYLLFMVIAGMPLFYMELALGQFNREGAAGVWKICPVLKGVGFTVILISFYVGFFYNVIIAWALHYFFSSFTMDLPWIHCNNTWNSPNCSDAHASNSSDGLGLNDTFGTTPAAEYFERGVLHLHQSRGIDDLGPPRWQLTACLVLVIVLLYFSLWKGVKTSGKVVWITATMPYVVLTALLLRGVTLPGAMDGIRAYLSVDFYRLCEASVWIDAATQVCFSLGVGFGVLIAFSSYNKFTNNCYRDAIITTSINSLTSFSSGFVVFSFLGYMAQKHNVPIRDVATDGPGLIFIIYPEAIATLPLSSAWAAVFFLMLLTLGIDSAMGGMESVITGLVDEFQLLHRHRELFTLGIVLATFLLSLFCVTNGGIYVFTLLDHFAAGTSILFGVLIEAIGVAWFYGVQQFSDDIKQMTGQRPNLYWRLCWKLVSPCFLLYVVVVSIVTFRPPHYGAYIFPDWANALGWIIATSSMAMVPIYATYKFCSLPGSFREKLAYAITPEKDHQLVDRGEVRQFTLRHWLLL
Measured pIC50 accompanies every entry in the list below.
Just the number, please; pIC50 means minus log10 of the concentration in mol/L.

Which pIC50 reading was recorded for the molecule CN(C)CC(c1ccc(O)cc1)C1(O)CCCCC1 (single isomer, unassigned; (-)) [(−)-O-desmethylvenlafaxine] ?
5.24

Now examine the next entry.
Entry CN(C)CC(c1ccc(O)cc1)C1(O)CCCCC1 (racemic) [Racemic O-desmethylvenlafaxine, O-desmethylvenlafaxine] has what pIC50?
5.12
